Attribution: the OligoGym collection

# details: siRNA; also: test system not given here
HELM strings list units from the 5' end as sugar, base in round brackets, then linkage (d deoxyribose, r ribose, m 2'-O-methyl, p phosphodiester). Strings are as the collection lists them, not checked against the first reports. ss, as = sense and antisense strand; [lna] = locked nucleic acid (LNA); [s4r] = 4'-thioribose; [fl2r] = 2'-fluoro
reported.endpoint: target mRNA knockdown (%)
The reply should be a number in %, with the unit left off.

substance: RNA1{[s4r](A)p.[s4r](A)p.[s4r](A)p.[s4r](C)p.r(A)p.r(U)p.r(G)p.r(C)p.r(A)p.r(G)p.r(A)p.r(A)p.r(A)p.r(A)p.r(U)p.r(G)p.r(C)p.r(U)p.r(G)p.r(T)p.r(T)}|RNA2{r(C)p.r(A)p.r(G)p.r(C)p.r(A)p.r(U)p.r(U)p.r(U)p.r(U)p.r(C)p.r(U)p.r(G)p.r(C)p.r(A)p.r(U)p.r(G)p.r(U)p.[s4r](U)p.[s4r](U)p.r(T)p.r(T)}$$$RNA1{StrandType:ss}|RNA2{StrandType:as}$
data.value: 76.5

substance: RNA1{r(C)p.r(U)p.r(U)p.r(A)p.r(C)p.r(G)p.r(C)p.r(U)p.r(G)p.r(A)p.r(G)p.r(U)p.r(A)p.r(C)p.r(U)p.r(U)p.r(C)p.r(G)p.r(A)p.r(T)p.r(T)}|RNA2{r(U)p.r(C)p.r(G)p.r(A)p.[lna](A)p.r(G)p.r(U)p.r(A)p.r(C)p.r(U)p.r(C)p.r(A)p.r(G)p.r(C)p.r(G)p.r(U)p.r(A)p.r(A)p.r(G)p.r(T)p.r(T)}$$$RNA1{StrandType:ss}|RNA2{StrandType:as}$
data.value: 83

substance: RNA1{m(G)p.r(A)p.m(C)p.r(A)p.m(A)p.r(G)p.m(G)p.r(G)p.m(A)p.r(A)p.m(G)p.r(G)p.m(U)p.r(U)p.m(A)p.r(G)p.m(C)p.r(C)p.m(U)p.r(T)p.r(T)}|RNA2{r(A)p.r(G)p.r(G)p.r(C)p.r(U)p.r(A)p.r(A)p.r(C)p.r(C)p.r(U)p.r(U)p.r(C)p.r(C)p.r(C)p.r(U)p.r(U)p.r(G)p.r(U)p.r(C)p.r(T)p.r(T)}$$$RNA1{StrandType:ss}|RNA2{StrandType:as}$
data.value: 34

substance: RNA1{[s4r](A)p.[s4r](A)p.r(A)p.r(C)p.r(A)p.r(U)p.r(G)p.r(C)p.r(A)p.r(G)p.r(A)p.r(A)p.r(A)p.r(A)p.r(U)p.r(G)p.r(C)p.r(U)p.r(G)p.r(T)p.r(T)}|RNA2{r(C)p.r(A)p.r(G)p.r(C)p.r(A)p.r(U)p.r(U)p.r(U)p.r(U)p.r(C)p.r(U)p.r(G)p.r(C)p.r(A)p.r(U)p.r(G)p.r(U)p.[s4r](U)p.[s4r](U)p.r(T)p.r(T)}$$$RNA1{StrandType:ss}|RNA2{StrandType:as}$
data.value: 72.4

substance: RNA1{r(A)p.r(U)p.r(C)p.r(G)p.r(A)p.r(C)p.r(C)p.m(U)p.r(G)p.r(A)p.r(A)p.r(G)p.r(G)p.r(A)p.r(G)p.m(U)p.r(A)p.r(C)p.r(G)p.r(T)p.r(T)}|RNA2{r(C)p.r(G)p.m(U)p.r(A)p.r(C)p.r(U)p.r(C)p.r(C)p.r(U)p.r(U)p.r(C)p.r(A)p.r(G)p.r(G)p.r(U)p.r(C)p.r(G)p.r(A)p.r(U)p.r(T)p.r(T)}$$$RNA1{StrandType:ss}|RNA2{StrandType:as}$
data.value: 30

substance: RNA1{r(G)p.r(G)p.r(G)p.r(A)p.r(G)p.r(G)p.r(A)p.r(U)p.[fl2r](G)p.r(A)p.r(C)p.[fl2r](A)p.r(A)p.r(A)p.r(G)p.r(A)p.r(A)p.r(G)p.r(C)p.r(T)p.r(T)}|RNA2{r(G)p.r(C)p.r(U)p.r(U)p.r(C)p.r(U)p.r(U)p.[fl2r](U)p.r(G)p.r(U)p.r(C)p.r(A)p.r(U)p.r(C)p.r(C)p.r(U)p.r(C)p.r(C)p.r(C)p.r(T)p.r(T)}$$$RNA1{StrandType:ss}|RNA2{StrandType:as}$
data.value: 84

substance: RNA1{r(A)p.r(G)p.r(A)p.r(G)p.r(G)p.r(A)p.r(C)p.r(C)p.m(U)p.r(A)p.r(G)p.r(A)p.r(A)p.r(G)p.r(G)p.r(C)p.r(G)p.r(G)p.r(C)p.r(T)p.r(T)}|RNA2{r(G)p.r(C)p.r(C)p.r(G)p.r(C)p.r(C)p.r(U)p.r(U)p.r(C)p.m(U)p.r(A)p.r(G)p.r(G)p.r(U)p.r(C)p.r(C)p.r(U)p.r(C)p.r(U)p.r(T)p.r(T)}$$$RNA1{StrandType:ss}|RNA2{StrandType:as}$
data.value: 89

substance: RNA1{r(A)p.r(A)p.r(G)p.r(G)p.r(A)p.r(C)p.r(C)p.m(U)p.r(A)p.r(G)p.r(A)p.r(G)p.r(G)p.r(A)p.r(G)p.r(U)p.m(C)p.m(A)p.r(C)p.r(T)p.r(T)}|RNA2{r(G)p.m(U)p.r(G)p.r(A)p.r(C)p.r(U)p.r(C)p.r(C)p.r(U)p.r(C)p.m(U)p.r(A)p.r(G)p.r(G)p.r(U)p.r(C)p.r(C)p.r(U)p.r(U)p.r(T)p.r(T)}$$$RNA1{StrandType:ss}|RNA2{StrandType:as}$
data.value: 78

Exercise: Quick one: target mRNA knockdown for RNA1{m(G)p.r(G)p.m(A)p.r(A)p.m(G)p.r(U)p.m(C)p.r(C)p.m(A)p.r(C)p.m(C)p.r(U)p.m(U)p.r(C)p.m(U)p.r(C)p.m(C)p.r(G)p.m(A)p.r(T)p.r(T)}|RNA2{m(U)p.r(C)p.r(G)p.r(G)p.r(A)p.r(G)p.r(A)p.r(A)p.r(G)p.r(G)p.m(U)p.r(G)p.r(G)p.r(A)p.r(C)p.m(U)p.m(U)p.r(C)p.r(C)p.r(T)p.r(T)}$$$RNA1{StrandType:ss}|RNA2{StrandType:as}$ ?
Solution: 27
